# Test system: Herpes simplex virus (HSV) ribonucleotide reductase (RR) enzyme
# MEASUREMENT_NOTES: Inhibitory effect was evaluated on Herpes simplex virus (HSV) ribonucleotide reductase (RR) enzyme.
READOUT_TYPE: IC50 (µM)
Answer with a number only, understood to be in µM.

Fill in: Herpes simplex virus (HSV) ribonucleotide reductase (RR) enzyme IC50 for "CC(C)C[C@@H](NC(=O)[C@@H](CC(=O)O)NC(=O)[C@H](CC(=O)N1CCCC1)NC(=O)[C@H](NC(=O)NC1[C@@H](C)CCC[C@@H]1C)C(C)C)C(=O)O" = 0.02
